This collection of values is drawn from patent US8476197B2.

Known Log P of a selection of compounds
setup.conditions: pH 2.7
Marks after values point to notes of the source that are not given here.

Record excerpt, results attached:
CCOC(=O)C(C#N)=C(NC(c1cc2ccccc2s1)C(F)(F)F)c1ncc(C(F)(F)F)cc1Cl (stereo not drawn) | 4.94^[a]
CCOC(=O)C(C#N)=C(NC(C)C(=O)NC)c1ccsc1Br (stereo not drawn) | 2.05^[a]
CCOC(=O)C(C#N)=C(NC(C)COc1ccccc1Cl)c1cn(C)nc1C(F)F (stereo not drawn) | 3.6^[a]

# Log P of CCOC(=O)C(C#N)=C(NC(C)C(C)C)c1ccnc(CC(C)C)c1Cl (stereo not drawn) = 4.81^[a]

# Log P of CCOC(=O)C(C#N)=C(NC(C)CSc1ccc(Cl)cc1)c1cn(C)nc1C(F)F (stereo not drawn) = 3.87^[a]

# Log P of CCOC(=O)C(C#N)=C(NC(C)C1CC1)c1cn(C)nc1C(Cl)Cl (racemic) = 3.23^[a]

# Log P of CCOC(=O)C(C#N)=C(NC(C)c1nccs1)c1cccnc1C(F)(F)F (racemic) = 2.9^[a]

# Log P of CCOC(=O)C(C#N)=C(NCC(c1ccccc1)C(C)C)c1cccnc1Cl (racemic) = 4.21^[a]

# Log P of CCC(CC)NC(=C(C#N)C(=O)OC)c1cccnc1Cl = 2.76^[a]
